# credit: the Human Domainome abundance scans (Beltran et al. 2025)

B1: Mineralocorticoid receptor, residues 600 to 675; numbered along this chain, P08235 (parent)
chain: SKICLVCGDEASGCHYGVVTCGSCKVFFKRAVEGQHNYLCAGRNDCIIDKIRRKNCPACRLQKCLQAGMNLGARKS

- Variants of: B1
- Method Summary: abundance fitness (aPCA) (normalised: wild type 0, dead -1); higher = more abundant; growth selection in yeast, the domain comes from the species named
- Condition Context: Homo sapiens
Measured Metric: abundance fitness

{"Sequence Code": "SKICLVCGDEASGCHYGVVTCGSCKVFFKRAVEGQHNYLCAGRNDCIIDKIRRKNCPACRLQKCLQAGMCLGARKS [N70C]", "Measured Metric": "abundance fitness", "Reported": -0.154}
{"Sequence Code": "SKICLVCGDEASGCHYGVVTCGSCKVFFKRAVEGQHNYLCAGRNDCIIDKIRRKNCPACRLQKCLQAGMDLGARKS [N70D]", "Measured Metric": "abundance fitness", "Reported": 0.014}
{"Sequence Code": "SKICLVCGDEASGCHYGVVTCGSCKVFFKRAPEGQHNYLCAGRNDCIIDKIRRKNCPACRLQKCLQAGMNLGARKS [V32P]", "Measured Metric": "abundance fitness", "Reported": -0.682}
{"Sequence Code": "VKICLVCGDEASGCHYGVVTCGSCKVFFKRAVEGQHNYLCAGRNDCIIDKIRRKNCPACRLQKCLQAGMNLGARKS [S1V]", "Measured Metric": "abundance fitness", "Reported": 0.018}
{"Sequence Code": "SKICLVCGDEASGCHYGVVKCGSCKVFFKRAVEGQHNYLCAGRNDCIIDKIRRKNCPACRLQKCLQAGMNLGARKS [T20K]", "Measured Metric": "abundance fitness", "Reported": -0.727}
{"Sequence Code": "SKICLVCGDEASWCHYGVVTCGSCKVFFKRAVEGQHNYLCAGRNDCIIDKIRRKNCPACRLQKCLQAGMNLGARKS [G13W]", "Measured Metric": "abundance fitness", "Reported": -0.268}
{"Sequence Code": "SKICLVCGDEASGCHYGVVTCGSCKVFFKRAVEGQHNYLCAGRNDQIIDKIRRKNCPACRLQKCLQAGMNLGARKS [C46Q]", "Measured Metric": "abundance fitness", "Reported": -0.966}
{"Sequence Code": "SKICLVCGSEASGCHYGVVTCGSCKVFFKRAVEGQHNYLCAGRNDCIIDKIRRKNCPACRLQKCLQAGMNLGARKS [D9S]", "Measured Metric": "abundance fitness", "Reported": -0.102}
{"Sequence Code": "SKICLVCGDEASGCHYGVVTCGSCKVFFKRAVEGQHNYLCAGRNDCIIDKIMRKNCPACRLQKCLQAGMNLGARKS [R52M]", "Measured Metric": "abundance fitness", "Reported": -0.131}
{"Sequence Code": "SKICLVCGDEASGCHYGVVICGSCKVFFKRAVEGQHNYLCAGRNDCIIDKIRRKNCPACRLQKCLQAGMNLGARKS [T20I]", "Measured Metric": "abundance fitness", "Reported": -0.082}
{"Sequence Code": "SKICLVCGDEASGCHYGVVTCGSCKVFFKRAVEGQHNYLCAGRNDCIIDKIRRKNCPACRLQKCLQCGMNLGARKS [A67C]", "Measured Metric": "abundance fitness", "Reported": -0.03}
{"Sequence Code": "SKICLVCGDEASGCHYGVVTCGSCKVFFKRAVEGQHNYLCAGRNDCIIDKIRKKNCPACRLQKCLQAGMNLGARKS [R53K]", "Measured Metric": "abundance fitness", "Reported": -0.078}
{"Sequence Code": "SKICLVCGDEASGCHYGVVTCGSCKVFFKRAVEEQHNYLCAGRNDCIIDKIRRKNCPACRLQKCLQAGMNLGARKS [G34E]", "Measured Metric": "abundance fitness", "Reported": -0.013}
{"Sequence Code": "SKIMLVCGDEASGCHYGVVTCGSCKVFFKRAVEGQHNYLCAGRNDCIIDKIRRKNCPACRLQKCLQAGMNLGARKS [C4M]", "Measured Metric": "abundance fitness", "Reported": -0.96}
{"Sequence Code": "SKICLVCGDEASGCHYGVVTCGSCKVFFKRAVEGQHNYLCAGRNDCIIDKIRRKNCPADRLQKCLQAGMNLGARKS [C59D]", "Measured Metric": "abundance fitness", "Reported": -0.626}
{"Sequence Code": "SKICLVCGDEASGCHYGVVTCGSCKVFAKRAVEGQHNYLCAGRNDCIIDKIRRKNCPACRLQKCLQAGMNLGARKS [F28A]", "Measured Metric": "abundance fitness", "Reported": -0.263}
{"Sequence Code": "SKICQVCGDEASGCHYGVVTCGSCKVFFKRAVEGQHNYLCAGRNDCIIDKIRRKNCPACRLQKCLQAGMNLGARKS [L5Q]", "Measured Metric": "abundance fitness", "Reported": 0.05}
{"Sequence Code": "SKICLVCGDIASGCHYGVVTCGSCKVFFKRAVEGQHNYLCAGRNDCIIDKIRRKNCPACRLQKCLQAGMNLGARKS [E10I]", "Measured Metric": "abundance fitness", "Reported": -0.188}
{"Sequence Code": "SDICLVCGDEASGCHYGVVTCGSCKVFFKRAVEGQHNYLCAGRNDCIIDKIRRKNCPACRLQKCLQAGMNLGARKS [K2D]", "Measured Metric": "abundance fitness", "Reported": -0.062}
{"Sequence Code": "SKICLVCGDEASGCHYGVVTCGSCKVFFKRAVEGQHNYLCAGRNDCIIDKIRRKNCPACRLQKCLQQGMNLGARKS [A67Q]", "Measured Metric": "abundance fitness", "Reported": -0.17}
{"Sequence Code": "SKICLVCGDEASGCHYGVVTCGSCKVFFKRAVEGQHNYLCAGRNDCIIDKIRRKNCPACRLQKCLQEGMNLGARKS [A67E]", "Measured Metric": "abundance fitness", "Reported": 0.092}
{"Sequence Code": "SKICLVCGDEASGCHYGVVTCGSCKVFFKRAVEGQHNYLCAGRNDCIIDKIRRKNCPACRLQKCLQAGMNLDARKS [G72D]", "Measured Metric": "abundance fitness", "Reported": 0.029}
{"Sequence Code": "SKICLVCGDEASGCHYGVVTCGSCKVFFKRAVEGQHNYLCAGRQDCIIDKIRRKNCPACRLQKCLQAGMNLGARKS [N44Q]", "Measured Metric": "abundance fitness", "Reported": -0.038}
{"Sequence Code": "SKICLVCGDEASGCHYGVYTCGSCKVFFKRAVEGQHNYLCAGRNDCIIDKIRRKNCPACRLQKCLQAGMNLGARKS [V19Y]", "Measured Metric": "abundance fitness", "Reported": -0.247}
{"Sequence Code": "SKICLVCGDEASGCHYGVVTCGSCKVFFKRAVEGQHNYLCAGRNLCIIDKIRRKNCPACRLQKCLQAGMNLGARKS [D45L]", "Measured Metric": "abundance fitness", "Reported": -0.094}
{"Sequence Code": "SKICLVCGDEASGCHYGVVTCGSCKVFFKRAVEGQHNYLCAGRNDCIIDKIRRKNCPACRYQKCLQAGMNLGARKS [L61Y]", "Measured Metric": "abundance fitness", "Reported": 0.04}
{"Sequence Code": "SKICLVCGDEAFGCHYGVVTCGSCKVFFKRAVEGQHNYLCAGRNDCIIDKIRRKNCPACRLQKCLQAGMNLGARKS [S12F]", "Measured Metric": "abundance fitness", "Reported": -0.173}
{"Sequence Code": "SKICLVRGDEASGCHYGVVTCGSCKVFFKRAVEGQHNYLCAGRNDCIIDKIRRKNCPACRLQKCLQAGMNLGARKS [C7R]", "Measured Metric": "abundance fitness", "Reported": -0.886}
{"Sequence Code": "SKICLVCGDEASGCHYGVVTCGSCKVFFKRAVEGQHDYLCAGRNDCIIDKIRRKNCPACRLQKCLQAGMNLGARKS [N37D]", "Measured Metric": "abundance fitness", "Reported": -0.02}
{"Sequence Code": "SKICLVCGDEASGCHYGVVTCGSCKVFFKRAVEGQHNYLCAGRNDCSIDKIRRKNCPACRLQKCLQAGMNLGARKS [I47S]", "Measured Metric": "abundance fitness", "Reported": 0}
{"Sequence Code": "SKICLVCGDEASGCHYGVVTCGSCKVFFKRAVEGQHNYLCAGRNDCIIDKIRRKNCPACRLQKCLQGGMNLGARKS [A67G]", "Measured Metric": "abundance fitness", "Reported": -0.076}
{"Sequence Code": "SKICLVCGDEASGCHYGVWTCGSCKVFFKRAVEGQHNYLCAGRNDCIIDKIRRKNCPACRLQKCLQAGMNLGARKS [V19W]", "Measured Metric": "abundance fitness", "Reported": -0.058}
{"Sequence Code": "SKICLVCGDEASGCHYGVVTCGSCKVFFKRAVCGQHNYLCAGRNDCIIDKIRRKNCPACRLQKCLQAGMNLGARKS [E33C]", "Measured Metric": "abundance fitness", "Reported": -0.107}
{"Sequence Code": "SKICLVCGDEASGCHYGVVTCGSCKVFFKRAVEGQHNYLCAGWNDCIIDKIRRKNCPACRLQKCLQAGMNLGARKS [R43W]", "Measured Metric": "abundance fitness", "Reported": -0.067}
{"Sequence Code": "SKICLVCGDEASGCHYGVVTCGSCKVFFKRAVEGQHNYLCAGRNDCIIDKIRRKNCPACRLQKCLQYGMNLGARKS [A67Y]", "Measured Metric": "abundance fitness", "Reported": -0.264}
{"Sequence Code": "SKICLVCGDEASGCHYGVVTCGSCVVFFKRAVEGQHNYLCAGRNDCIIDKIRRKNCPACRLQKCLQAGMNLGARKS [K25V]", "Measured Metric": "abundance fitness", "Reported": -0.035}
{"Sequence Code": "SKICLVCGDEASGCHYGVVTCGSSKVFFKRAVEGQHNYLCAGRNDCIIDKIRRKNCPACRLQKCLQAGMNLGARKS [C24S]", "Measured Metric": "abundance fitness", "Reported": -0.867}
{"Sequence Code": "SKICLVCWDEASGCHYGVVTCGSCKVFFKRAVEGQHNYLCAGRNDCIIDKIRRKNCPACRLQKCLQAGMNLGARKS [G8W]", "Measured Metric": "abundance fitness", "Reported": -0.27}
{"Sequence Code": "SKICLVCGDEASGCHKGVVTCGSCKVFFKRAVEGQHNYLCAGRNDCIIDKIRRKNCPACRLQKCLQAGMNLGARKS [Y16K]", "Measured Metric": "abundance fitness", "Reported": -0.081}
{"Sequence Code": "SKICLVCGDEASGCHYGVVTCGSCKVFFKRAVEGQHNYLCAVRNDCIIDKIRRKNCPACRLQKCLQAGMNLGARKS [G42V]", "Measured Metric": "abundance fitness", "Reported": 0.005}
{"Sequence Code": "SKICLVCGDEASGCHYGVVTCGSCKVFFKRAVEGQHNYLCAGRNDCIIDKIRRKNCPACRLQKCLQAGMNLTARKS [G72T]", "Measured Metric": "abundance fitness", "Reported": -0.115}
